tested on: 33-mer immunodominant gluten (gliadin) peptide; experiment: chronoamperometry; details: RT (electrochemistry), pH 7.4, PSA-1, B4 and truncations: 1x PBS (10 mM phosphate, 154 mM NaCl), 24nt variants: 10 mM Tris-HCl, 150 mM NaCl, 5 mM KCl
measurement_label: Kd (nM)
Expressed in nM, but write only the number.

[
  {
    "construct_sequence": "CTAGGCGAAATATAGCTACAACTGTCTGA [Gli1T(1-29)]",
    "test_system": "33-mer immunodominant gluten (gliadin) peptide",
    "measure_unit": "nM",
    "Kd": 86
  }
]

Query sequence follows.
Lab note: need Kd for CTAGGCGAAATATAGCTACAACTGTCTGAAGGCACCCAAT [Gli1] on 33-mer immunodominant gluten (gliadin) peptide, anyone have it?
136

###

Entries and their measured pKd follow.
tested on: 33-mer immunodominant gluten (gliadin) peptide; test: SPR; conditions: RT (electrochemistry), pH 7.4, PSA-1, B4 and truncations: 1x PBS (10 mM phosphate, 154 mM NaCl), 24nt variants: 10 mM Tris-HCl, 150 mM NaCl, 5 mM KCl
The quantity pKd is defined as the negative base-10 logarithm of the molar concentration.

[
  {
    "construct_sequence": "CTAGGCGAAATATAGCTACAACTGTCTGAAGGCACCCAAT [Gli1]",
    "measurement_label": "pKd",
    "value_measured": 6.81
  }
]

Quick one: pKd for CTAGGCGAAATATAGCTACAACTGTCTGA [Gli1T(1-29)] ?
7.15

###

tested on: collagen XI 10-mer peptide (non-helical C-telopeptide fragment); experiment: chronoamperometry (magnetic beads); conditions: RT (electrochemistry), pH 7.4, PSA-1, B4 and truncations: 1x PBS (10 mM phosphate, 154 mM NaCl), 24nt variants: 10 mM Tris-HCl, 150 mM NaCl, 5 mM KCl
Entries and their measured Kd follow.
Expressed in nM, but write only the number.

[
  {
    "construct_sequence": "TTTTTATTCAGGGCACCTGGAACGACGCGTCGGCT [B4T(11-40)]",
    "measurement_label": "Kd",
    "value_measured": 44
  }
]

Query sequence follows.
Quick one: Kd for TTTTTGACGCAAGAAATTCAGGGCACCTGGAACGACGCGTCGGCT [B4] ?
147

These entries and their values trace back to paper PMC12261273.
